Parameter normalized growth: see the listing below.
TEST SUMMARY: chemical genetic growth profiling, strain panel (AID 1159580);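 further: tested at 20 µM; growth read once vehicle control cultures reached saturation at 30 °C; 1 = growth at the plate median or of vehicle wells; lower values mean less growth of the strain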
DETAILS: S. cerevisiae deletion strains, growth OD, locus YBR135W, strain CKS1, active compounds read low
Screen size: about 5,500 compounds; about 2,000 (36%) were called active. About 18% were inconclusive and are not listed. The list shows a part of the results.
Answer with the value's number alone.

Known normalized growth results, listed for orientation:
Fc1ccc(NC(=S)N2CCCN(Cc3ccc(Cl)cc3Cl)CC2)cc1; 0.992
O=C(NCCc1ccncc1)c1ccc(Cl)c(Cl)c1; 0.988
CC(C)Cc1ccc(C(C)C(=O)Nc2nn(C)c3ccccc23)cc1 (centres undefined); 0.974
COc1cccc(NC(=S)NC2CC(C)CC(C)(C)C2)c1 (centres undefined); 0.973
Fc1cccc(Cl)c1CSc1n[nH]c(-c2cc(C(F)(F)F)cc(C(F)(F)F)c2)n1; 0.981
CSc1n[nH]c(-c2cc(C(F)(F)F)cc(C(F)(F)F)c2)n1; 0.946
Cc1ccc(C)c(CSc2nc(C3CCCCC3)c(C#N)c(=O)[nH]2)c1; 0.964
COC(=O)c1cnn(-c2c(Cl)cccc2Cl)c1C=C(C#N)C#N; 0.954

Sample O=C(NCC(c1ccccc1)c1c[nH]c2ccccc12)c1ccc(C(F)(F)F)cc1 (centres undefined) ; normalized growth observed: 0.998

* * *

TEST SUMMARY: chemical genetic growth profiling, strain panel (AID 1159580)
DETAILS: S. cerevisiae deletion strains, growth OD, locus YMR307W, strain GAS1, active compounds read low
Screen size: about 5,500 compounds; about 2,000 (36%) were called active. Roughly 18% stayed inconclusive and do not appear here. The list shows a part of the results.
ASSAY ENDPOINT: normalized growth

Cc1cc(=O)n2[nH]cc(C#N)c2n1; 0.968 (inactive)

Sample CO[C@@]12[C@@H]3NC3CN1C1=C(C(=O)C(N)=C(C)C1=O)[C@@H]2COC(N)=O (stereo partly specified) ; normalized growth observed: 1.02 (inactive)

Sample O=c1oc2cc(O)ccc2s1 ; normalized growth observed: 0.946 (inactive)

Sample COc1cc(-c2ccc(=O)[nH]n2)ccc1OC(F)F ; normalized growth observed: 0.995 (inactive)

Sample C/C=C(/C)C(=O)O[C@H]1CC[C@@]2(C)[C@@H]3CC[C@H]4[C@]5(O)C[C@H](O)[C@@]6(O)[C@@H](CN7C[C@@H](C)CC[C@H]7[C@@]6(C)O)[C@]5(O)C[C@@]42O[C@]13O ; normalized growth observed: 1.15 (inactive)

Sample NCC1OC(O[C@@H]2[C@H](O)C(OC3C(O)C(N)CC(N)C3OC3OC(CO)C(O)C(O)C3N)O[C@@H]2CO)C(N)C(O)C1O (stereo partly specified) ; normalized growth observed: 1 (inactive)

* * *

TEST SUMMARY: chemical genetic growth profiling, strain panel (AID 1159580)
DETAILS: S. cerevisiae deletion strains, growth OD, locus YOL147C, strain pex11
About 2,000 (36%) of roughly 5,500 compounds were called active. Inconclusive results (about 18%) are left out. No stated cut-off is given here; in the data, active means normalized growth mostly below about 0.91 (no sharp cut-off); inconclusive means no clear call, values can overlap the other calls; inactive means mostly above about 0.92. Some of the results follow.
Form entry, call: pick from active, inactive

Nc1c2c(nc3ccccc13)CCCC2; inactive
O=c1[nH]cc(F)c(=O)[nH]1; active
CNC(=O)O/N=C\C(C)(C)SC; inactive

// outcome(item) with item = N=C(N)c1ccc(OCCCCCOc2ccc(C(=N)N)cc2)cc1
inactive

// outcome(item) with item = NNc1nncc2ccccc12
inactive

// outcome(item) with item = Nc1c2c(nc3ccccc13)CCCC2O (stereo not drawn)
inactive

// outcome(item) with item = Nc1ccccc1C(=O)CC(N)C(=O)O (stereo not drawn)
inactive

// outcome(item) with item = CCOC(=O)OC(C)OC(=O)C1N2C(=O)C(NC(=O)[C@H](N)c3ccccc3)C2SC1(C)C (stereo partly drawn)
inactive

* * *

TEST SUMMARY: chemical genetic growth profiling, strain panel (AID 1159580)
DETAILS: S. cerevisiae deletion strains, growth OD, locus YEL061C, strain CIN8 (second series)
Hit rate of the full screen: of about 5,500 compounds, about 2,000 (36%) were called active. Not shown: some 18% with an inconclusive outcome. Cut-off read from the data, not from the text of the source: active = normalized growth mostly below about 0.91 (no sharp cut-off); inconclusive = no clear call, values can overlap the other calls; inactive = mostly above about 0.92. Some of the results follow.
Form entry, call: pick from active, inactive

CCC(C)C(=O)O[C@H]1[C@H](O)C2C(CN3CC(C)CCC3[C@@]2(C)O)C2C[C@]34O[C@]5(O)C(OC(=O)C(C)(O)CC)CC[C@@]3(C)C5C(OC(C)=O)[C@@H](OC(C)=O)C4[C@@]21O (some centres undefined); inactive

// outcome(item) with item = C[C@@H]1CC[C@H]2[C@@H](C)C(O)O[C@@H]3O[C@@]4(C)CC[C@@H]1[C@]32OO4 (some centres undefined)
active

// outcome(item) with item = C[C@@H]1CC[C@H]2[C@@H](C)C(=O)O[C@@H]3O[C@@]4(C)CC[C@@H]1[C@]32OO4
active

// outcome(item) with item = C[C@@H]1C(=O)O[C@H]2[C@H]1CC[C@@]1(C)C=CC(=O)[C@@]3(C)O[C@@]213
inactive

* * *

TEST SUMMARY: chemical genetic growth profiling, strain panel (AID 1159580);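 further: tested at 20 µM; growth read once vehicle control cultures reached saturation at 30 °C; 1 = growth at the plate median or of vehicle wells; lower values mean less growth of the strain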
DETAILS: S. cerevisiae deletion strains, growth OD, locus YJR066W, strain TOR1, active compounds read low
About 2,000 (36%) of roughly 5,500 compounds were called active. Roughly 18% stayed inconclusive and do not appear here. The list shows a part of the results.
ASSAY ENDPOINT: normalized growth
Answer with the value's number alone.

Known normalized growth results, listed for orientation:
O=C(Nc1ccccc1Sc1ccc([N+](=O)[O-])cc1[N+](=O)[O-])C(Cl)(Cl)Cl; 1.1
CCN1C[C@]2(OC(=O)c3ccccc3NC(C)=O)CCC(OC)[C@]34C1[C@H](CC23)[C@@]1(O)CC(OC)[C@H]2CC4C1(O)[C@H]2OC (some centres undefined); 0.975
CC(=O)Nc1ccc(OCC(O)CNC(C)C)cc1 (centres undefined); 0.965

Next:
Sample CC1(C)CC[C@]2(C)CC[C@]3(C)C(=CCC4[C@@]5(C)CC[C@H](O)C(C)(C)C5CC[C@]43C)C2C1 (some centres undefined) ; normalized growth observed: 0.993

* * *

TEST SUMMARY: chemical genetic growth profiling, strain panel (AID 1159580);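 further: tested at 20 µM; growth read once vehicle control cultures reached saturation at 30 °C; 1 = growth at the plate median or of vehicle wells; lower values mean less growth of the strain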
DETAILS: S. cerevisiae deletion strains, growth OD, locus YNL248C, strain rpa49
Screen size: about 5,500 compounds; about 2,000 (36%) were called active. Roughly 18% stayed inconclusive and do not appear here. Rule as the data show it: active = normalized growth mostly below about 0.91 (no sharp cut-off); inconclusive = no clear call, values can overlap the other calls; inactive = mostly above about 0.92. The list shows a part of the results.
Form entry, call: pick from active, inactive

Answered examples (8):
Cc1cc(C(C)(C)C)c(O)c(C(C)(C)C)c1; inactive
CC(C)(Sc1cc(C(C)(C)C)c(O)c(C(C)(C)C)c1)Sc1cc(C(C)(C)C)c(O)c(C(C)(C)C)c1; inactive
CC(=O)NC(C(=O)O)C(C)(C)SN=O (configuration not stated); inactive
O=C(O)CC(O)(CC(=O)O)C(=O)O; inactive
Clc1ccccc1C(c1ccccc1)(c1ccccc1)n1ccnc1; active
NC(Cc1c[nH]c2ccccc12)C(=O)O (configuration not stated); inactive
Cc1cc(-n2c(=O)[nH]c(=O)n(C)c2=O)ccc1Oc1ccc(SC(F)(F)F)cc1; active
Nc1ccc(S(=O)(=O)c2ccc(N)cc2)cc1; inactive

// outcome(item) with item = COC1=C[C@@H]2[C@@H]3Cc4ccc(OC)c(O)c4[C@]2(CCN3C)CC1=O
inactive

// outcome(item) with item = COc1cccc2c1C(=O)c1c(O)c3c(c(O)c1C2=O)C[C@@](O)(C(=O)CO)C[C@@H]3O[C@H]1C[C@H](N)[C@@H](O)[C@H](C)O1
active

// outcome(item) with item = C#C[C@]1(O)CCC2C3CCC4=CC(=O)CC[C@@H]4C3CC[C@@]21C (some centres not stated)
inactive

// outcome(item) with item = CC1=NS(=O)(=O)c2cc(Cl)ccc2N1
inactive

// outcome(item) with item = O=C1C(O)=C(O)C(=O)C(O)=C1O
inactive

* * *

TEST SUMMARY: chemical genetic growth profiling, strain panel (AID 1159580);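 further: tested at 20 µM; growth read once vehicle control cultures reached saturation at 30 °C; 1 = growth at the plate median or of vehicle wells; lower values mean less growth of the strain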
DETAILS: S. cerevisiae deletion strains, growth OD, locus YOR061W, strain CKA2, active compounds read low
Hit rate of the full screen: of about 5,500 compounds, about 2,000 (36%) were called active. Not shown: some 18% with an inconclusive outcome. The list shows a part of the results. Where a SMILES comes first, the peptide text is derived from it. Bridges are numbered along the chain shown (N, C = ends). [ ]: non-standard residue; d: D form. The star is where a group is joined. ξ: configuration not given here. ξDab(CH2SO3H) = NC(CCNCS(=O)(=O)O)C(=O)O; Heptanoyl(6-Me) = CC(C)CCCCC(=O)*; Dab = NCC[CH](N)C(=O)O
ASSAY ENDPOINT: normalized growth
Answer with the value's number alone.

Known normalized growth results, listed for orientation:
NC(N)=N/N=C/c1c(Cl)cccc1Cl; 1.01
CC1(C)CC[C@]2(C)CC[C@]3(C)C(=CCC4[C@@]5(C)CC[C@H](O)C(C)(C)C5CC[C@]43C)C2C1 (stereo partly specified); 1.01
C[C@]12CCC(=O)C=C1CCC1C2[C@@H](O)C[C@@]2(C)C1CC[C@]2(O)C(=O)CO (stereo partly specified); 1.02
Clc1cc(Cl)cc(-c2nc(SCc3ccc(Cl)cc3Cl)n[nH]2)c1; 0.756
CCC(C)C1NC(=O)C(CCNCS(=O)(=O)O)NC(=O)C(NC(=O)C(CCNCS(=O)(=O)O)NC(=O)C(NC(=O)C(CCNCS(=O)(=O)O)NC(=O)CCCCC(C)C)C(C)O)CCNC(=O)C(C(C)O)NC(=O)C(CCNCS(=O)(=O)O)NC(=O)C(CCNCS(=O)(=O)O)NC(=O)C(C(C)CC)NC1=O (stereo unspecified) ({Heptanoyl(6-Me)}-[ξDab(CH2SO3H)]T[ξDab(CH2SO3H)][Dab][ξDab(CH2SO3H)]II[ξDab(CH2SO3H)][ξDab(CH2SO3H)]T; lactam 4-C; configuration not given here); 0.978

Next:
Sample N=C(N)c1ccc(OCCCCCOc2ccc(C(=N)N)cc2)cc1 ; normalized growth observed: 0.964
